In this section, each of the binders is paired with its reported koff.
Molecular target: PfHsp70-x C-terminal truncated version with a missing EEVN motif (Plasmodium falciparum)
Assay: SPR; PfHsp70-x or PfHsp70-xT immobilised on ProteOn GLC chips as ligands; peptides as analytes at 1.25-20 nM, 50 uL/min; 25 °C; PBS-Tween; with 2 mM ADP
Kindly format the answer as number then unit.

Worked examples follow.
NRNNTG [peptide NRNNTG] | 1.01e-08 s⁻¹
ALLLMYRR [peptide ALLLMYRR] | 1.04e-05 s⁻¹
ANNNMYRR [peptide ANNNMYRR] | 1.04e-05 s⁻¹

Q: What does the data say about its koff? Entry: NRLLTG [peptide NRLLTG]
Ans: 1e-05 s⁻¹

The measurements presented in this section are drawn from paper PMC6282620.
